Reference source: PubChem BioAssay

measured_on: Concanavalin-A (Canavalia ensiformis)
protocol_text: ConA small-molecule binders, primary screen, artefact control for SMM control protein annotation, biochemical, small-molecule microarray, Alexa647 label, 635 nm (AID 1127);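 note: z combines 667 nm emission intensity with signal-to-noise across three replicate slides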
condition: ConA-A647 binding fluorescence, higher = more signal
Recorded composite z-score split into classes bin 0 (below 0.2), bin 1 (0.2 to below 1), bin 2 (1 or more)

- compound: "NC(=O)NCC#Cc1ccc2c(c1)[C@]1(C(=O)N2)[C@H](C(=O)Nc2nc3ccccc3s2)[C@H]2C(=O)O[C@H](c3ccccc3)[C@H](c3ccccc3)N2[C@@H]1c1ccc(O)cc1"
  class_label: "bin 2"
- compound: "COCCOC(=O)N1C(=O)[C@@]2(c3cc(C#Cc4ccc(OC)cc4)ccc31)[C@H](C(=O)NC[C@H](O)c1ccccc1)[C@H]1C(=O)O[C@H](c3ccccc3)[C@H](c3ccccc3)N1[C@@H]2c1ccc(O)cc1"
  class_label: "bin 2"
- compound: "CC(=O)n1cc(C(O)C2C=CC3C(=O)N(c4ccccc4)C(=O)C3N2Nc2ccccc2)c2ccccc21 (configuration not stated)"
  class_label: "bin 0"
- compound: "O=C1O[C@@H](c2ccccc2)[C@@H](c2ccccc2)N2[C@@H](c3ccc(O)cc3)[C@]3(C(=O)Nc4ccc(C#CCCO)cc43)[C@@H](C(=O)NC[C@H](O)c3ccccc3)[C@H]12"
  class_label: "bin 0"
- compound: "O=C1O[C@@H](c2ccccc2)[C@@H](c2ccccc2)N2[C@@H](c3ccc(O)cc3)[C@]3(C(=O)Nc4ccc(C#CC5=CCCCC5)cc43)[C@@H](C(=O)N3CCN(c4ncccn4)CC3)[C@H]12"
  class_label: "bin 2"
- compound: "CC(C)N1C(=O)[C@@]2(c3ccc([N+](=O)[O-])cc3)CC(=O)N(C3CCCCC3)[C@@H]2c2ccc(CO)cc21"
  class_label: "bin 1"
- compound: "O=C1OCC=C[C@H]2OC34C=CCN(Cn5nnc6ccccc65)C(=O)[C@H]3N(CCCCCCO)C(=O)[C@@H]4[C@@H]12 (some centres not stated)"
  class_label: "bin 0"
- compound: "CCOC(=O)C[C@H]1[C@H](OC(=O)c2ccccc2-c2ccccc2)[C@@H](NC(=O)c2ccc3ccccc3n2)c2cc(OCCCO)ccc2N1C(=O)c1ccc2ccccc2n1"
  class_label: "bin 1"
- compound: "COCCOC(=O)N1C(=O)[C@@]2(c3cc(C#CC4(O)CCCCCC4)ccc31)[C@H](C(=O)N1CCCCCCC1)[C@H]1C(=O)O[C@H](c3ccccc3)[C@H](c3ccccc3)N1[C@@H]2c1ccc(OCCO)cc1"
  class_label: "bin 2"
- compound: "CCCCN1CC=CC23O[C@@H]4C=CCOC(=O)[C@@H]4[C@H]2C(=O)N(C(C)CO)[C@@H]3C1=O (some centres not stated)"
  class_label: "bin 0"
- compound: "CN(C)CCCNC(=O)[C@@H]1c2ccccc2C(=O)N(CC23CC4CC(CC(C4)C2)C3)[C@H]1c1ccc(CO)cc1"
  class_label: "bin 2"
- compound: "COc1ccccc1CN1C(=O)c2ccccc2[C@@H](C(=O)NC(C)C)[C@@H]1c1ccc(CO)cc1"
  class_label: "bin 2"

---

measured_on: Focal adhesion kinase 1 (Homo sapiens)
protocol_text: small-molecule microarray binders of FAK, primary screen, biochemical, 635/667 nm fluorescence, BSA, DTT (AID 1130);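 note: composite of spot emission at 667 nm and signal to noise over triplicate slides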
condition: PTK2 binding, 635 nm fluorescence, higher = more signal
metric: composite z-score

- compound: "CC1CC/C=C\\[C@H]2OC34C=CCN(c5ccc6ccccc6c5)C(=O)[C@H]3N(C(CO)C(C)C)C(=O)[C@@H]4C2C(=O)O1 (some centres not stated)"
  test_value: 1.33
- compound: "COc1ccccc1CN1C(=O)c2ccccc2[C@@H](C(=O)NC(C)C)[C@@H]1c1ccc(CO)cc1"
  test_value: 0.476
- compound: "COCCOC(=O)N1C(=O)[C@@]2(c3cc(C#CCC(C(=O)OC)C(=O)OC)ccc31)[C@H](c1ccc(OCCO)cc1)N1[C@H](c3ccccc3)[C@H](c3ccccc3)OC(=O)[C@H]1[C@@H]2C(=O)N1CCN(c2ncccn2)CC1"
  test_value: -0.0555
- compound: "CCOc1cc(C(O)C2C=CC3C(=O)N(C4CCCCC4)C(=O)C3N2Nc2ccc(OC)cc2)ccc1O (configuration not stated)"
  test_value: 0.903
- compound: "CC(=O)n1cc(C(O)C2C=CC3C(=O)N(c4ccccc4)C(=O)C3N2Nc2ccccc2)c2ccccc21 (configuration not stated)"
  test_value: 0.0901
- compound: "C=CC[C@@]1(C(=O)N2CCCCC2)N=C(c2ccc(OCCCO)cc2)O[C@@H]1c1ccccc1"
  test_value: 1.58
- compound: "NC(=O)NCC#Cc1ccc2c(c1)[C@]1(C(=O)N2)[C@H](c2ccc(O)cc2)N2[C@H](c3ccccc3)[C@H](c3ccccc3)OC(=O)[C@H]2[C@@H]1C(=O)Nc1nc2ccccc2s1"
  test_value: -0.15

---

// values below are reported composite z-score
protocol_text: small-molecule microarray binders of probe aDKK1, primary screen, biochemical, biotinylated probe, 635/667 nm fluorescence (AID 1099);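 note: score merges 667nm spot fluorescence with signal to noise across triplicate slides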
condition: higher = more signal

- compound: "CCOC(=O)C[C@H]1[C@H](OC(=O)c2ccc(-c3ccccc3)cc2)[C@@H](NC(=O)c2ccc3ccccc3n2)c2cc(OCCCO)ccc2N1C(=O)c1ccccc1"
  composite z-score: 0.048
- compound: "COc1ccc(C(O)C2C=CC3C(=O)N(c4ccccc4)C(=O)C3N2Nc2ccccc2)cc1OCc1ccccc1 (centres undefined)"
  composite z-score: 0.294
- compound: "COC(=O)[C@]1(CCS(=O)(=O)c2ccccc2)N=C(c2ccc(OCCCO)cc2)O[C@@H]1c1ccccc1CN=[N+]=[N-]"
  composite z-score: 0.366
- compound: "NCCCCCCNC(=O)[C@@H]1C[C@@H]2C(=O)N3CCC[C@H]3C(=O)N2[C@@H]1c1ccc(O)cc1"
  composite z-score: 0.0265

---

Test system: Noggin (protein binding on small-molecule microarray)
protocol_text: Noggin binders on small-molecule microarray, primary screen, biochemical, 635/667 nm fluorescence (AID 1095);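 note: score merges 667 nm feature fluorescence with signal to noise over triplicate slides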
condition: 635 nm fluorescence, higher = more signal
Classification field: TRUE = composite z-score at or over -0.4; FALSE = composite z-score under -0.4.

- compound: "Cc1ccc(S[C@]2(C(=O)NCc3ccccc3)CC(=O)N(C(C)C)[C@@H]2c2ccc(CO)cc2I)cc1"
  class_label: "FALSE"
- compound: "CCCC[C@@H]1C[C@H]1[C@@H](NC(=O)c1ccccc1)c1ccc(Cl)cc1"
  class_label: "FALSE"
- compound: "COCCCNC(=O)[C@]1(Cc2ccccc2N=[N+]=[N-])N=C(c2ccc(OCCCO)cc2)O[C@@H]1c1ccccc1N=[N+]=[N-]"
  class_label: "TRUE"
- compound: "CC(=O)n1cc(C(O)C2C=CC3C(=O)N(Cc4ccccc4)C(=O)C3N2n2cnnc2)c2ccccc21 (centres undefined)"
  class_label: "FALSE"
- compound: "CN(C)CCCNC(=O)[C@@]1(C)c2ccccc2C(=O)N(Cc2cc(C(F)(F)F)cc(C(F)(F)F)c2)[C@H]1c1ccc(CO)cc1"
  class_label: "FALSE"
- compound: "COc1ccc([Si](C)(C)[C@@H]2[C@@H](CCO)O[C@]3(C(=O)N(Cc4cccc(N5C(=O)c6cccc7cccc5c67)c4)c4ccccc43)[C@H]2C)cc1"
  class_label: "TRUE"
- compound: "[N-]=[N+]=NCc1ccccc1C[C@]1(C(=O)NCC(O)CO)N=C(c2ccc(OCCCO)cc2)O[C@H]1c1ccccc1CN=[N+]=[N-] (some centres undefined)"
  class_label: "TRUE"
- compound: "O=C1O[C@@H](c2ccccc2)[C@@H](c2ccccc2)N2[C@@H](c3ccc(O)cc3)[C@]3(C(=O)Nc4ccc(C#CC5=CCCCC5)cc43)[C@@H](C(=O)N3CCN(c4ncccn4)CC3)[C@H]12"
  class_label: "TRUE"
- compound: "O=C1O[C@@H](c2ccccc2)[C@@H](c2ccccc2)N2[C@@H](c3ccccc3OCCO)[C@]3(C(=O)Nc4ccccc43)[C@@H](C(=O)NC[C@H](O)c3ccccc3)[C@H]12"
  class_label: "FALSE"
- compound: "O=C1c2ccccc2[C@@]2(Cc3ccccc3N(C3CC3)C2=O)[C@H](c2ccc(CO)cc2)N1C1CCCCC1"
  class_label: "FALSE"
- compound: "COCC(=C=CC[C@H](O)c1ccc(OCCO)cc1)C[C@H](O)COCc1ccccc1"
  class_label: "TRUE"
- compound: "CC(C)C(O)C1C=CC2C(=O)N(C)C(=O)C2N1Nc1ccccc1 (centres undefined)"
  class_label: "TRUE"
- compound: "C=CCNC(=O)[C@@H]1[C@H]2C(=O)O[C@H](c3ccccc3)[C@H](c3ccccc3)N2[C@H](c2ccccc2OCCO)[C@@]12C(=O)N(C(=O)OCCOC)c1ccc(C#CC3=CCCCC3)cc12"
  class_label: "TRUE"
- compound: "C=CCOC(=O)[C@@H]1[C@H]2C(=O)O[C@H](c3ccccc3)[C@H](c3ccccc3)N2[C@H](c2ccc(OCCOC(=O)[C@H]3C[C@H]4C(=O)N[C@@H](CC(C)C)C(=O)N4[C@H]3c3ccc(O)cc3)cc2)[C@@]12C(=O)Nc1ccc(I)cc12"
  class_label: "TRUE"
